pIC50: −log10 of the molar value.
Quick note: these are pIC50 numbers for system: Tyrosine-protein phosphatase non-receptor type 2 (Homo sapiens, UniProt P17706)
EXPERIMENTAL READOUT: pIC50

- COc1cccc(CC(NC(=O)CCCC[C@]23CCC(C)(C)C[C@H]2C2=CC[C@@H]4[C@@]5(C)CC[C@H](O)C(C)(C)[C@@H]5CC[C@@]4(C)[C@]2(C)CC3)C(=O)O)c1 (some centres undefined): 6.28
- O=C(O)C(=O)c1ccc(OCc2ccc(COc3ccc(C(=O)C(=O)O)cc3)cc2)cc1: 5.27
- CC1(C)CC[C@]2(C(=O)O)CC[C@]3(C)C(=CC[C@@H]4[C@@]5(C)CCCC(C)(C)[C@@H]5CC[C@]43C)[C@@H]2C1: 5.52
- CC1(C)CC[C@]2(C(=O)O)CC[C@]3(C)C(=CC[C@@H]4[C@@]5(C)CC[C@H](OCc6ccc(C(=O)O)cc6)C(C)(C)[C@@H]5CC[C@]43C)[C@@H]2C1: 6.33

* * *

SUBJECT OF TEST: Tyrosine-protein phosphatase non-receptor type 6 (Homo sapiens, UniProt P29350)
Sequence (P29350 whole entry): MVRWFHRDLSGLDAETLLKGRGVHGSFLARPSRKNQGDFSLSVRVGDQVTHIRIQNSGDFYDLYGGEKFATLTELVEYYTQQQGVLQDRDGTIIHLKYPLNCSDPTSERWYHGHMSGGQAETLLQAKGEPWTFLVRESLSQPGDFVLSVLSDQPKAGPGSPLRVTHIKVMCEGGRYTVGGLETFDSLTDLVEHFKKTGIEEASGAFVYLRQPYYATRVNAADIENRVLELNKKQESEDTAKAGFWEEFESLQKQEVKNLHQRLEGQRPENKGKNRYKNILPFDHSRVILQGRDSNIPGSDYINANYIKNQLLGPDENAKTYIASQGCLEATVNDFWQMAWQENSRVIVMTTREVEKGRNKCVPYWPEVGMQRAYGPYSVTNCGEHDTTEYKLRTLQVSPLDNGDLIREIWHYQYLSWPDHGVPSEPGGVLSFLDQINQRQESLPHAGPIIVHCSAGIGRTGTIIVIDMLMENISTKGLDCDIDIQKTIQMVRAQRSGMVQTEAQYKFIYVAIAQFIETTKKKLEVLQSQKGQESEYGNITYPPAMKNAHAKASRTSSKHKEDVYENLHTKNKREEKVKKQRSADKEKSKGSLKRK
MEASUREMENT PROTOCOL: Inhibition of human recombinant SHP1
pIC50: −log10 of the molar value.
Label scheme for pIC50: lower than 5 is NOT MET, 5 and above is MET.

* CC1(C)CC[C@]2(CCCCC(=O)N[C@@H](Cc3ccccc3)C(=O)O)CC[C@]3(C)C(=CC[C@@H]4[C@@]5(C)CC[C@H](OCc6ccc(C(=O)O)cc6)C(C)(C)[C@@H]5CC[C@]43C)[C@@H]2C1 | MET
* CC1(C)CC[C@]2(CCCCC(=O)N[C@@H](Cc3ccccc3)C(=O)O)CC[C@]3(C)C(=CC[C@@H]4[C@@]5(C)CC[C@H](O)C(C)(C)[C@@H]5CC[C@]43C)[C@@H]2C1 | MET
* CC1(C)CC[C@]2(CCC(=O)O)CC[C@]3(C)C(=CC[C@@H]4[C@@]5(C)CC[C@H](O)C(C)(C)[C@@H]5CC[C@]43C)[C@@H]2C1 | NOT MET
* C[C@H]1[C@H](C)CC[C@]2(C(=O)O)CC[C@]3(C)C(=CC[C@@H]4[C@@]5(C)C[C@@H](O)[C@H](O)C(C)(C)[C@@H]5CC[C@]43C)[C@H]12 [COROSOLIC ACID] | NOT MET
* CC1(C)CC[C@]2(C(=O)O)CC[C@]3(C)C(=CC[C@@H]4[C@@]5(C)CC[C@H](OCc6ccc(C(=O)O)cc6)C(C)(C)[C@@H]5CC[C@]43C)[C@@H]2C1 | MET
* C[C@H]1[C@H](C)CC[C@]2(C(=O)O)CC[C@]3(C)C(=CC[C@@H]4[C@@]5(C)CC[C@H](O)C(C)(C)[C@@H]5CC[C@]43C)[C@H]12 [URSOLIC ACID] | NOT MET
* CC1(C)CC[C@]2(CCCCC(=O)NC(Cc3ccc4c(c3)OCO4)C(=O)O)CC[C@]3(C)C(=CC[C@@H]4[C@@]5(C)CC[C@H](O)C(C)(C)[C@@H]5CC[C@]43C)[C@@H]2C1 (stereo not given in full) | MET
* CC1(C)CC[C@]2(CCCCC(=O)O)CC[C@]3(C)C(=CC[C@@H]4[C@@]5(C)CC[C@H](O)C(C)(C)[C@@H]5CC[C@]43C)[C@@H]2C1 | MET

* * *

SUBJECT OF TEST: UniProt P17706
EXPERIMENTAL READOUT: IC50

- CC1(C)CC[C@]2(CCCCC(=O)N[C@@H](Cc3ccccc3)C(=O)O)CC[C@]3(C)C(=CC[C@@H]4[C@@]5(C)CC[C@H](O)C(C)(C)[C@@H]5CC[C@]43C)[C@@H]2C1: 630 nM
- C[C@H]1[C@H](C)CC[C@]2(C(=O)O)CC[C@]3(C)C(=CC[C@@H]4[C@@]5(C)C[C@@H](O)[C@H](O)C(C)(C)[C@@H]5CC[C@]43C)[C@H]12: 11300 nM
- COc1ccc(CC(NC(=O)CCCC[C@]23CCC(C)(C)C[C@H]2C2=CC[C@@H]4[C@@]5(C)CC[C@H](O)C(C)(C)[C@@H]5CC[C@@]4(C)[C@]2(C)CC3)C(=O)O)cc1 (stereo not given in full): 550 nM
- C[C@H]1[C@H](C)CC[C@]2(C(=O)O)CC[C@]3(C)C(=CC[C@@H]4[C@@]5(C)C[C@@H](O)[C@H](O)[C@@](C)(CO)[C@@H]5[C@H](O)C[C@]43C)[C@H]12: > 20000 nM
- CC1(C)CC[C@]2(C(=O)O)CC[C@]3(C)C(=CC[C@@H]4[C@@]5(C)CC[C@H](OC(=O)CCC(=O)O)C(C)(C)[C@@H]5CC[C@]43C)[C@@H]2C1 [OLEANOLIC ACID 3-O-SUCCINATE]: 5360 nM
- CC1(C)CC[C@]2(CCCCC(=O)NC(Cc3ccc(F)cc3)C(=O)O)CC[C@]3(C)C(=CC[C@@H]4[C@@]5(C)CC[C@H](O)C(C)(C)[C@@H]5CC[C@]43C)[C@@H]2C1 (stereo not given in full): 650 nM
- CC1(C)CC[C@]2(C(=O)O)CC[C@]3(C)C(=CC[C@@H]4[C@@]5(C)CCC(=O)C(C)(C)[C@@H]5CC[C@]43C)[C@@H]2C1: 5630 nM
- CC1(C)CC[C@]2(C(=O)O)CC[C@]3(C)C(=CC[C@@H]4[C@@]5(C)CC[C@H](OC(=O)c6ccccc6C(=O)O)C(C)(C)[C@@H]5CC[C@]43C)[C@@H]2C1: 5000 nM
- CC1(C)CC[C@]2(CCCCC(=O)N[C@@H](Cc3c[nH]c4ccccc34)C(=O)O)CC[C@]3(C)C(=CC[C@@H]4[C@@]5(C)CC[C@H](O)C(C)(C)[C@@H]5CC[C@]43C)[C@@H]2C1: 590 nM
- CC1(C)CC[C@]2(CCCCC(=O)NC(Cc3cccc(Cl)c3)C(=O)O)CC[C@]3(C)C(=CC[C@@H]4[C@@]5(C)CC[C@H](O)C(C)(C)[C@@H]5CC[C@]43C)[C@@H]2C1 (stereo not given in full): 520 nM

* * *

Below, each entry is listed alongside its reported pIC50.
Target protein (sequence): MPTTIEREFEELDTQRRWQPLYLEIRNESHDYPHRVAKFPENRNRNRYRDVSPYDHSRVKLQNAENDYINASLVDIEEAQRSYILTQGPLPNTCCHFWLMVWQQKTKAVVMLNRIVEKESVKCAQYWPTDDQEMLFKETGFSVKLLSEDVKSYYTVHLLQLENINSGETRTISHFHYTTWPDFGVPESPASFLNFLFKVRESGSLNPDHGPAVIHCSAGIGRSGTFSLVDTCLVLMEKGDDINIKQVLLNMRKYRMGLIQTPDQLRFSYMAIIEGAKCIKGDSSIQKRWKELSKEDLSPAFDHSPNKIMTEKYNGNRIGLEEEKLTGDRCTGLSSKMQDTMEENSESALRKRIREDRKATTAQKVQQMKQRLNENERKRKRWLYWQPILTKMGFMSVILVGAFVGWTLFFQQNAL
pIC50: −log10 of the molar value.
EXPERIMENTAL READOUT: pIC50

* CC1(C)CC[C@]2(CCCCC(=O)NC(Cc3ccccc3Cl)C(=O)O)CC[C@]3(C)C(=CC[C@@H]4[C@@]5(C)CC[C@H](O)C(C)(C)[C@@H]5CC[C@]43C)[C@@H]2C1 (stereo not given in full) | 6.26
* CC1(C)CC[C@]2(CCCCC(=O)NC(Cc3ccc([N+](=O)[O-])cc3)C(=O)O)CC[C@]3(C)C(=CC[C@@H]4[C@@]5(C)CC[C@H](O)C(C)(C)[C@@H]5CC[C@]43C)[C@@H]2C1 (stereo not given in full) | 6.44
* CC1(C)CC[C@]2(C(=O)O)CC[C@]3(C)C(=CC[C@@H]4[C@@]5(C)CC[C@H](OC(=O)CC(C)(C)C(=O)O)C(C)(C)[C@@H]5CC[C@]43C)[C@@H]2C1 | 5.86

* * *

SUBJECT OF TEST: UniProtKB P18031
Sequence (P18031 whole entry): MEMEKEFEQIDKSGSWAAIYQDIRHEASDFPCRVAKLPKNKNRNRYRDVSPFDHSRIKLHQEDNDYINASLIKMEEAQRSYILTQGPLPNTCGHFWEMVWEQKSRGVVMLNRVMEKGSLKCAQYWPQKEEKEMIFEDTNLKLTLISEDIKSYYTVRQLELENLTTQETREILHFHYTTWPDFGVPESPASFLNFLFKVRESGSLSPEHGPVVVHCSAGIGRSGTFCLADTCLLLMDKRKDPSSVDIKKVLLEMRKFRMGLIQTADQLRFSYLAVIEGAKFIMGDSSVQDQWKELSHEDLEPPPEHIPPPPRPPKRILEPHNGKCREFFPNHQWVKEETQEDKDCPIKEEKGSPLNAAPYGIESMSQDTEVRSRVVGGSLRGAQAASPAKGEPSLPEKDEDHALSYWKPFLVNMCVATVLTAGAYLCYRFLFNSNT
Binary label based on IC50 with cut-off 5000 nM: below gives class 1, not below gives class 0.

* C[C@H]1[C@H](C)CC[C@]2(C(=O)O)CC[C@]3(C)C(=CC[C@@H]4[C@@]5(C)C[C@@H](O)[C@H](O)[C@@](C)(CO)[C@@H]5CC[C@]43C)[C@H]12 [ASIATIC ACID] | class 0
* CC1(C)CC[C@]2(CCCCCCCCC(=O)O)CC[C@]3(C)C(=CC[C@@H]4[C@@]5(C)CC[C@H](O)C(C)(C)[C@@H]5CC[C@]43C)[C@@H]2C1 | class 1
* CC1(C)CC[C@]2(CCCCC(=O)NC(Cc3cccc(Cl)c3)C(=O)O)CC[C@]3(C)C(=CC[C@@H]4[C@@]5(C)CC[C@H](O)C(C)(C)[C@@H]5CC[C@]43C)[C@@H]2C1 (stereo partly drawn) | class 1
* CC1(C)CC[C@]2(CCCCCCCCCCC(=O)O)CC[C@]3(C)C(=CC[C@@H]4[C@@]5(C)CC[C@H](O)C(C)(C)[C@@H]5CC[C@]43C)[C@@H]2C1 | class 1
* COC(=O)[C@]12CCC(C)(C)C[C@H]1C1=CC[C@@H]3[C@@]4(C)CC[C@H](O)C(C)(C)[C@@H]4CC[C@@]3(C)[C@]1(C)CC2 [METHYL OLEANOLATE] | class 1
* CC1(C)CC[C@]2(C(=O)O)CC[C@]3(C)C(=CC[C@@H]4[C@@]5(C)CC[C@H](OC(=O)CC(C)(C)C(=O)O)C(C)(C)[C@@H]5CC[C@]43C)[C@@H]2C1 | class 1
* CC1(C)CC[C@]2(C(N)=O)CC[C@]3(C)C(=CC[C@@H]4[C@@]5(C)CC[C@H](O)C(C)(C)[C@@H]5CC[C@]43C)[C@@H]2C1 | class 1
* CC1(C)CC[C@]2(C(=O)O)CC[C@]3(C)C(=CC[C@@H]4[C@@]5(C)CC[C@H](OCc6cccc(C(=O)O)c6)C(C)(C)[C@@H]5CC[C@]43C)[C@@H]2C1 | class 1
* CC1(C)CC[C@]2(C(=O)NCC(=O)O)CC[C@]3(C)C(=CC[C@@H]4[C@@]5(C)CC[C@H](O)C(C)(C)[C@@H]5CC[C@]43C)[C@@H]2C1 | class 0
* CC1(C)CC[C@]2(C(=O)O)CC[C@]3(C)C(=CC[C@@H]4[C@@]5(C)CC[C@H](OC(=O)CCC(=O)O)C(C)(C)[C@@H]5CC[C@]43C)[C@@H]2C1 [OLEANOLIC ACID 3-O-SUCCINATE] | class 0
* CC1(C)CC[C@]2(CCCCC(=O)NC(Cc3ccccc3Cl)C(=O)O)CC[C@]3(C)C(=CC[C@@H]4[C@@]5(C)CC[C@H](O)C(C)(C)[C@@H]5CC[C@]43C)[C@@H]2C1 (stereo partly drawn) | class 1
* CC1(C)CC[C@]2(CCCCC(=O)N[C@@H](Cc3ccccc3)C(=O)O)CC[C@]3(C)C(=CC[C@@H]4[C@@]5(C)CC[C@H](O)C(C)(C)[C@@H]5CC[C@]43C)[C@@H]2C1 | class 1
* CC1(C)CC[C@]2(CCCCC(=O)N[C@@H](Cc3cnc[nH]3)C(=O)O)CC[C@]3(C)C(=CC[C@@H]4[C@@]5(C)CC[C@H](O)C(C)(C)[C@@H]5CC[C@]43C)[C@@H]2C1 | class 1
* CC1(C)CC[C@]2(CCCCCCCCCCCCC(=O)O)CC[C@]3(C)C(=CC[C@@H]4[C@@]5(C)CC[C@H](O)C(C)(C)[C@@H]5CC[C@]43C)[C@@H]2C1 | class 1
* CC1(C)CC[C@]2(CCCCC(=O)NC(Cc3ccc4c(c3)OCO4)C(=O)O)CC[C@]3(C)C(=CC[C@@H]4[C@@]5(C)CC[C@H](O)C(C)(C)[C@@H]5CC[C@]43C)[C@@H]2C1 (stereo partly drawn) | class 1
* CC1(C)CC[C@]2(C(=O)O)CC[C@]3(C)C(=CC[C@@H]4[C@@]5(C)CC[C@H](OC(=O)c6ccccc6C(=O)O)C(C)(C)[C@@H]5CC[C@]43C)[C@@H]2C1 | class 1
* CC1(C)CC[C@]2(CCCCCCC(=O)O)CC[C@]3(C)C(=CC[C@@H]4[C@@]5(C)CC[C@H](O)C(C)(C)[C@@H]5CC[C@]43C)[C@@H]2C1 | class 1
* COc1cccc(CC(NC(=O)CCCC[C@]23CCC(C)(C)C[C@H]2C2=CC[C@@H]4[C@@]5(C)CC[C@H](O)C(C)(C)[C@@H]5CC[C@@]4(C)[C@]2(C)CC3)C(=O)O)c1OC (stereo partly drawn) | class 1
* C[C@H]1[C@H](C)CC[C@]2(C(=O)O)CC[C@]3(C)C(=CC[C@@H]4[C@@]5(C)C[C@@H](O)[C@H](O)C(C)(C)[C@@H]5CC[C@]43C)[C@H]12 [COROSOLIC ACID] | class 0
* CC1(C)CC[C@]2(CCCCC(=O)NC(Cc3ccc(F)cc3)C(=O)O)CC[C@]3(C)C(=CC[C@@H]4[C@@]5(C)CC[C@H](O)C(C)(C)[C@@H]5CC[C@]43C)[C@@H]2C1 (stereo partly drawn) | class 1
* CC1(C)CC[C@]2(C(=O)NCc3ccccc3)CC[C@]3(C)C(=CC[C@@H]4[C@@]5(C)CC[C@H](O)C(C)(C)[C@@H]5CC[C@]43C)[C@@H]2C1 | class 0
* CC1(C)CC[C@]2(C(=O)OCc3ccccc3)CC[C@]3(C)C(=CC[C@@H]4[C@@]5(C)CC[C@H](O)C(C)(C)[C@@H]5CC[C@]43C)[C@@H]2C1 | class 0
* CC1(C)CC[C@]2(CCCCC(=O)N[C@H](Cc3ccccc3)C(=O)O)CC[C@]3(C)C(=CC[C@@H]4[C@@]5(C)CC[C@H](O)C(C)(C)[C@@H]5CC[C@]43C)[C@@H]2C1 | class 1
